The measured values listed here are drawn from ChEMBL document CHEMBL5030563.

# experimentDescription: Volume of distribution in ICR mouse at 5 mg/kg, iv up to 24 hrs by LC-MS/MS analysis
# Format: ADME, organism-based
# experimentalContext: in vivo
outcomeMeasure: Vd (L/kg)
Give your result in L/kg as a bare value.

Data request: Name the reported Vd value associated with the compound Nc1ccccc1NC(=O)c1ccc(CCn2ncc3c2nc(N)n2nc(-c4ccco4)nc32)cc1
Data returned: 1.19

* * *

# experimentDescription: AUC (0 to […]) in ICR mouse at 20 mg/kg, ip up to 24 hrs by LC-MS/MS analysis
# Format: ADME, organism-based
# Design: route intraperitoneal, dose 20 mg/kg, time <=24
# experimentalContext: in vivo
outcomeMeasure: AUC(0-t) (µg·h/mL)
State the answer as a number, implicitly in µg·h/mL.

Data request: Record request: AUC(0-t) value, item Nc1ccccc1NC(=O)c1ccc(CCn2ncc3c2nc(N)n2nc(-c4ccco4)nc32)cc1
Data returned: 6.54

* * *

# experimentDescription: Cmax in ICR mouse at 20 mg/kg, ip up to 24 hrs by LC-MS/MS analysis
# Type: ADME, organism-based
# Set-up: route intraperitoneal, dose 20 mg/kg, time <=24
# experimentalContext: in vivo
outcomeMeasure: Cmax (ng/mL)
Give the value, in units of ng/mL, as a plain number.

Data request: For the molecule Nc1ccccc1NC(=O)c1ccc(CCn2ncc3c2nc(N)n2nc(-c4ccco4)nc32)cc1 , what Cmax is on record?
Data returned: 2160

* * *

# studyTarget: Protein deacetylase HDAC6 (Homo sapiens)
# Sequence (Q9UBN7 whole entry): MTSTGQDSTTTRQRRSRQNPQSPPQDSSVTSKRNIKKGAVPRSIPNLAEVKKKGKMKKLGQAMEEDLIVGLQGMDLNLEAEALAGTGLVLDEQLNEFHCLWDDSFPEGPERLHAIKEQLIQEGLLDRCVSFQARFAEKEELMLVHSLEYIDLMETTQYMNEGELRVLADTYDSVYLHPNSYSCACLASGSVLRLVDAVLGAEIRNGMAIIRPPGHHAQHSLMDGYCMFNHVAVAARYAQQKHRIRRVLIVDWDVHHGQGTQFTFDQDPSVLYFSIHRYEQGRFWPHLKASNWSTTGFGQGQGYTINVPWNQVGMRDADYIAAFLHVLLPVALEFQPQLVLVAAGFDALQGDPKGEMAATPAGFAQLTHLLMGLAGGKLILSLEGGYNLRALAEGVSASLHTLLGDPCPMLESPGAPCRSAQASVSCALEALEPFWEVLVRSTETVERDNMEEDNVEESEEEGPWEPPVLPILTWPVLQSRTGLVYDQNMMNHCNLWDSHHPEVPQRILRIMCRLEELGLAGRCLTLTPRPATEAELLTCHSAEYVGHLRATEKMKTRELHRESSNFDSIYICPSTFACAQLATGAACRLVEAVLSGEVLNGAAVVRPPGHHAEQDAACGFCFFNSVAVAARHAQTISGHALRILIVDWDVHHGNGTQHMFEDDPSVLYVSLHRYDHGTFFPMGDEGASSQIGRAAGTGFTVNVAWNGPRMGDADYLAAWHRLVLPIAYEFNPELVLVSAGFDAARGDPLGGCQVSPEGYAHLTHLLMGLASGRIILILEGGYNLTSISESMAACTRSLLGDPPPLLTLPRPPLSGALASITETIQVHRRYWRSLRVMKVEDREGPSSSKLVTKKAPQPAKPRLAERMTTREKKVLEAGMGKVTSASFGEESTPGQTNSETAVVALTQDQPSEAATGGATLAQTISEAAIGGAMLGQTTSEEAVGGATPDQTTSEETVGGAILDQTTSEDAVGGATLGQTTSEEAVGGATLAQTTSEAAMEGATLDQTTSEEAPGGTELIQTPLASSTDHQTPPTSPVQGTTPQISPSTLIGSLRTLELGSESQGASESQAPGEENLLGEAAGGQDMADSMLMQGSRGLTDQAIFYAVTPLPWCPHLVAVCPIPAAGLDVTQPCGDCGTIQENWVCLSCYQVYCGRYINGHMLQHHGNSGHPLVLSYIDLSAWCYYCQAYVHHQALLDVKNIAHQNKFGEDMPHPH
Please go through the items and note down their pIC50.
Scale for pIC50: -log10 of concentration given in mol/L; no unit attached.

Data request: Report pIC50 for Nc1nc(NCCOc2ccc(C(=O)NO)cc2)nc2nc(-c3ccco3)nn12 please.
Data returned: 8.49

Data request: Also check Nc1nc(NCc2ccc(/C=C/C(=O)NO)cc2)nc2nc(-c3ccco3)nn12
Data returned: 8.05

Data request: Same lookup for Nc1nc(NCc2ccc(OCCCCC(=O)NO)cc2)nc2nc(-c3ccco3)nn12 , please.
Data returned: 7.46

Data request: Next molecule: Nc1nc(NCCc2ccc(OCCCCC(=O)NO)cc2)nc2nc(-c3ccco3)nn12
Data returned: 7.43

Data request: // same read-out, input: Nc1nc(NCCCc2ccc(C(=O)NO)cc2)nc2nc(-c3ccco3)nn12
Data returned: 8.31

Data request: Please give the result for Nc1nc2c(cnn2CCc2ccc(NC(=O)CCCCCCC(=O)NO)cc2)c2nc(-c3ccco3)nn12 too.
Data returned: 8.23

Data request: Likewise for Nc1nc2c(cnn2CCc2ccc(C(=O)NO)cc2)c2nc(-c3ccco3)nn12 ?
Data returned: 8.12

Data request: Follow-up item: Nc1nc(NCCc2ccc(NC(=O)CCCCCCC(=O)NO)cc2)nc2nc(-c3ccco3)nn12
Data returned: 8.23

Data request: And the next one, Nc1nc(NCCc2ccc(OCCCC(=O)NO)cc2)nc2nc(-c3ccco3)nn12 ?
Data returned: 6.88

Data request: For Nc1nc(NCc2ccc(C(=O)NO)cc2)nc2nc(-c3ccco3)nn12 then?
Data returned: 8.52

* * *

# experimentDescription: Half life in ICR mouse at 20 mg/kg, ip up to 24 hrs by LC-MS/MS analysis
# Assay type: ADME, organism-based
# experimentalContext: in vivo
outcomeMeasure: half-life (h)
// return numeric value only (unit: h, not printed)

Data request: Need half-life, item Nc1ccccc1NC(=O)c1ccc(CCn2ncc3c2nc(N)n2nc(-c4ccco4)nc32)cc1
Data returned: 1.89
